- method: MTT assay, cytotoxicity in glioma cells
- Type: cell-based
- particulars: glioma cells (ATCC), 24 hrs, per cent of negative control, Tamoxifen 100 μM, AD7C-NTP 100-1000 ng/ml, read-out: Percent Of Viable Cells
reported-property: viability at 24 h, 100 µM

Reported viability at 24 h, 100 µM, compound `CC/C(=C(\c1ccccc1)c1ccc(OCCN(C)C)cc1)c1ccccc1` : ____
28%

---

- method: MTT assay, cytotoxicity in neuroblastoma cells
- Assay type: cell-based
- particulars: neuroblastoma cells (ATCC), 24 hour incubation, per cent of negative control, Tamoxifen 100 μM, AD7C-NTP 100-1000 ng/ml, read-out: Percent Of Viable Cells
reported-property: viability at 24 h, 100 µM (%)
Quick reminder: number only, in %, skip the unit.

Reported viability at 24 h, 100 µM, molecule `CC/C(=C(\c1ccccc1)c1ccc(OCCN(C)C)cc1)c1ccccc1` : ____
14

Origin of measurements: patent US20030054990A1
